biological target: PI3Kα (Homo sapiens (Human), UniProt P42336); conditions: read-out: PI3Kα AlphaScreen ® Ki
Sequence (P42336 whole entry): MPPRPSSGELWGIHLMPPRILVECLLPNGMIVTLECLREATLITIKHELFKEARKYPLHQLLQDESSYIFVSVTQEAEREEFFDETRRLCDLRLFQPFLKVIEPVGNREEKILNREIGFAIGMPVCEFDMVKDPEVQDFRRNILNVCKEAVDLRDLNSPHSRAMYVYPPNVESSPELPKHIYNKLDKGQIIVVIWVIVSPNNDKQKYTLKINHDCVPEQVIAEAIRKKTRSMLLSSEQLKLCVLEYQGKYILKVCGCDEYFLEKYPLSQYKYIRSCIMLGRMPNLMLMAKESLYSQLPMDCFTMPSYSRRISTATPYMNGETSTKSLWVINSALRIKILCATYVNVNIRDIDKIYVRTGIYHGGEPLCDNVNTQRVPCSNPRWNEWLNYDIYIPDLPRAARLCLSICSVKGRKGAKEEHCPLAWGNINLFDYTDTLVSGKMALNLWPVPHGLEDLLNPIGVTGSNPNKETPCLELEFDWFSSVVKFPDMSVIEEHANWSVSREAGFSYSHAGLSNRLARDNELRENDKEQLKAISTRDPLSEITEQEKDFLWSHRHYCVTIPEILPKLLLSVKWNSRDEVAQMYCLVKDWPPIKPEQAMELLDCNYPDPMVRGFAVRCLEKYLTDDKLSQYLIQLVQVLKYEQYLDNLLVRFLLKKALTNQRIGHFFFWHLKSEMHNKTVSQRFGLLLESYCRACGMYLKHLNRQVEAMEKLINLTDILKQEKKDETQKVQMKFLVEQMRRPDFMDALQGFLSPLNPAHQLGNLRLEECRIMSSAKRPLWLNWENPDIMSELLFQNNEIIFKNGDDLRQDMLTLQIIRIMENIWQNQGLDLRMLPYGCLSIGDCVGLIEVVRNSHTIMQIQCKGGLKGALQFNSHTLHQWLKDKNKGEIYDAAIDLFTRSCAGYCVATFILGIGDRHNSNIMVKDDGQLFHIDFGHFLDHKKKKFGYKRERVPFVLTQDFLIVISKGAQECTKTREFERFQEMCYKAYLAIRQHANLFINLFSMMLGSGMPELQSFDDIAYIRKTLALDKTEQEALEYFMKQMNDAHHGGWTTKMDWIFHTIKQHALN
Sequence (P27986 whole entry partner): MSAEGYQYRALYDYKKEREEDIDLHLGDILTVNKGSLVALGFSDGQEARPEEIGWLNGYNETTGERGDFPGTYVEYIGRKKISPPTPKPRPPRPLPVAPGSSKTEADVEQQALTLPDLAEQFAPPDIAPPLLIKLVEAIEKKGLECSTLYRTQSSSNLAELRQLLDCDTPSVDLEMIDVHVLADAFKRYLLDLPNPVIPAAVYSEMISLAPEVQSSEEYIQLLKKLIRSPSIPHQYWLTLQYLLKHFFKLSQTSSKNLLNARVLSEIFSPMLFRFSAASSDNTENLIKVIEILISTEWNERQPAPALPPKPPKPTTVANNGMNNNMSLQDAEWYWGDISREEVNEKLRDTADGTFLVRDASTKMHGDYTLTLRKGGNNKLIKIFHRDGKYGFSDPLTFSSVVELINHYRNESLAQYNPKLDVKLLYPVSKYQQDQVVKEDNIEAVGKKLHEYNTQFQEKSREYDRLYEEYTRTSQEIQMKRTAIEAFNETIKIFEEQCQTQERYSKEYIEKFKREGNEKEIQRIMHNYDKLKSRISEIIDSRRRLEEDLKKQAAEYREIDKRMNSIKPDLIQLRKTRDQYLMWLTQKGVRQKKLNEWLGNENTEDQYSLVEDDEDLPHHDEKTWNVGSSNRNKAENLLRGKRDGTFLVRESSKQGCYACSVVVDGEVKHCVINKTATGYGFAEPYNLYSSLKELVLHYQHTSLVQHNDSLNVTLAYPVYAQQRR
List of Ki values.
Write the answer as a number in nM, unit excluded.

| Molecule | System Under Test | Ki (nM) |
| --- | --- | --- |
| COc1ncc(Nc2ncc(C(C)N3CCN(S(C)(=O)=O)CC3)nc2-c2cc(N)nc(C)n2)cc1F (centres unmarked) [Example 283] | PI3Kα (Homo sapiens (Human), UniProt P42336) | 3 |
| COc1ncc(Nc2ncc(CN3CCN(S(C)(=O)=O)CC3C(F)(F)F)cc2-c2nc(C)nc(N)n2)cc1F (centres unmarked) [Example 313] | PI3Kα (Homo sapiens (Human), UniProt P42336) | 7 |
| Cc1nc(N)nc(-c2cc(Cl)cnc2NC2CCOCC2)n1 [Example 188] | PI3Kα (Homo sapiens (Human), UniProt P42336) | 2080 |
| Cc1ccc2cc(Nc3ncccc3-c3nc(C)nc(N)n3)ccc2n1 [Example 171] | PI3Kα (Homo sapiens (Human), UniProt P42336) | 611 |
| Cc1nc(N)nc(-c2cc(CN3CCN(S(C)(=O)=O)CC3)cnc2Nc2ccc3scnc3c2)n1 [Example 240] | PI3Kα (Homo sapiens (Human), UniProt P42336) | 8 |

Q: Bench note: what Ki did COc1ccc(Nc2ncc(CO)cc2-c2nc(C)nc3[nH]cnc23)cn1 [Example 76] show?
Result: 44

Q: Bench note: what Ki did COc1ncc(Nc2ncc([C@@H](C)N3CCN(S(C)(=O)=O)CC3)cc2-c2nc(C)nc3[nH]cnc23)cc1F [Example 297] show?
Result: 1

Q: Bench note: what Ki did COc1ccc(Nc2ncc(N3CC[C@H](CO)C3)cc2-c2nc(C)nc3[nH]cnc23)cn1 [Example 204] show?
Result: 40

---

tested on: ProfilerPro Kinase Selectivity Assay Kit kinases; assay type: biochemical; details: AMPK; 1 μM compound concentration
Measured Quantity: POC (Percent of control) AMPK (POC)
Write the answer as a number in POC, unit excluded.

# example entries with known answers
| Structure Smiles | System Under Test | Result Unit | Measured Value |
| --- | --- | --- | --- |
| COc1ccc(Nc2ncc(CN3CCN(C(C)=O)CC3)cc2-c2nc(C)nc3[nH]cnc23)cn1 | ProfilerPro Kinase Selectivity Assay Kit kinases | POC | 91 |
| COc1ccc(Nc2ncc(Cc3ccc(S(C)(=O)=O)cc3)cc2-c2nc(C)nc3[nH]cnc23)cn1 | ProfilerPro Kinase Selectivity Assay Kit kinases | POC | 102 |
| COc1ccc(Nc2ncccc2-c2nc(C)nc3[nH]cnc23)cn1 | ProfilerPro Kinase Selectivity Assay Kit kinases | POC | 99 |

Q: Bench note: what POC (Percent of control) AMPK did Cc1nc(N)nc(-c2cc(CN3CCN(S(C)(=O)=O)CC3)cnc2Nc2cccc(O)c2)n1 show?
Result: 91

Q: Bench note: what POC (Percent of control) AMPK did Cc1cnc(Nc2cccc3[nH]ccc23)c(-c2nc(C)nc(N)n2)c1 show?
Result: 91

Q: Bench note: what POC (Percent of control) AMPK did CCc1cnc(Nc2ccc(OC)nc2)c(-c2nc(C)nc3[nH]cnc23)c1 show?
Result: 100

---

molecular target: human mutant B-raf (HuBraf V600E) (Homo sapiens (Human), UniProt P15056, V600E); settings: at 10 μM compound concentration; POC = 100 − percent inhibition
Sequence (P15056 whole entry V600E): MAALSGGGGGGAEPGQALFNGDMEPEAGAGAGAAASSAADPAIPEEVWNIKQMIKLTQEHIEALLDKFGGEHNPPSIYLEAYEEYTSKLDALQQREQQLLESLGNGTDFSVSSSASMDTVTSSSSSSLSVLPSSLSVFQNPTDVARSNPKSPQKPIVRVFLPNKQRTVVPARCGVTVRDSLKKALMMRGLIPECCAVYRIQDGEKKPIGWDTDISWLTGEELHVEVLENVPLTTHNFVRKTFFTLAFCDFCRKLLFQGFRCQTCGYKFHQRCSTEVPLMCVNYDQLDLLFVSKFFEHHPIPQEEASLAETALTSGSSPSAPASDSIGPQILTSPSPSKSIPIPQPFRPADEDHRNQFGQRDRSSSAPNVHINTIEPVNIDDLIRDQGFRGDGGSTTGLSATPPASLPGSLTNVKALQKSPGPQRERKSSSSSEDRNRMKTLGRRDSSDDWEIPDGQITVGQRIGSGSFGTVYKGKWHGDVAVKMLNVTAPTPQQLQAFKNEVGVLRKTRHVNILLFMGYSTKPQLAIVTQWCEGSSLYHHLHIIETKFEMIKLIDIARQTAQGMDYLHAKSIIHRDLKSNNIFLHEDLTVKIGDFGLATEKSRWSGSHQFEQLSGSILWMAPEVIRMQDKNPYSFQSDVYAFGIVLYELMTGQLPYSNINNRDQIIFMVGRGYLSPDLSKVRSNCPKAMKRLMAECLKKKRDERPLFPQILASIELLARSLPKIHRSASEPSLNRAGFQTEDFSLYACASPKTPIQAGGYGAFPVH
Measured Quantity: Mutant B-raf HTRF Assay POC Mean n = 2

# example entries with known answers
| Structure Smiles | Mutant B-raf HTRF Assay POC Mean n = 2 |
| --- | --- |
| Cc1cnc(Nc2cccnc2)c(-c2nc(C)nc(N)n2)c1 | 107% of Control (POC) |
| Cc1nc(-c2cccnc2Nc2cccc3[nH]ncc23)c2nc[nH]c2n1 | 87% of Control (POC) |
| Nc1ccc(Nc2ncccc2-c2ncnc3[nH]cnc23)cn1 | 38% of Control (POC) |
| COc1ccc(Nc2ncccc2-c2ncnc3[nH]cnc23)cn1 | 72% of Control (POC) |
| COc1ccc(Nc2ncc(CN3CCN(S(C)(=O)=O)CC3)cc2-c2nc(C)nc(N)n2)cn1 | 98% of Control (POC) |

Q: Bench note: what Mutant B-raf HTRF Assay POC Mean n = 2 did CCc1cnc(Nc2ccc(OC)nc2)c(-c2nc(C)nc3[nH]cnc23)c1 show?
Result: 111% of Control (POC)

Q: Bench note: what Mutant B-raf HTRF Assay POC Mean n = 2 did Cc1nc(N)nc(-c2cc(CN3CCN(S(C)(=O)=O)CC3)cnc2Nc2cccc(O)c2)n1 show?
Result: 92% of Control (POC)

Q: Bench note: what Mutant B-raf HTRF Assay POC Mean n = 2 did COc1ccc(Nc2ncc(CN3CCNCC3)cc2-c2nc(C)nc3[nH]cnc23)cn1 show?
Result: 97% of Control (POC)

Q: Bench note: what Mutant B-raf HTRF Assay POC Mean n = 2 did Cc1nc(-c2cc(Cl)cnc2Nc2cccc3[nH]ncc23)c2nc[nH]c2n1 show?
Result: 66% of Control (POC)

---

target: ProfilerPro Kinase Selectivity Assay Kit kinases (Homo sapiens); type: biochemical; conditions: PKD2; 1 μM compound concentration
Measured Quantity: POC (Percent of control) PKD2
The reply must contain the numeric value and, after it, the unit.

| Structure Smiles | POC (Percent of control) PKD2 |
| --- | --- |
| Cc1nc(N)nc(-c2cccnc2Nc2cccc3[nH]ccc23)n1 | 99 POC |
| CCc1cnc(Nc2ccc(OC)nc2)c(-c2nc(C)nc3[nH]cnc23)c1 | 99 POC |
| COc1ccc(Nc2ncc(CN3CCN(C(C)=O)CC3)cc2-c2nc(C)nc3[nH]cnc23)cn1 | 100 POC |
| COc1ccc(Nc2ncc(Cc3ccc(S(C)(=O)=O)cc3)cc2-c2nc(C)nc3[nH]cnc23)cn1 | 87 POC |

Q: Bench note: what POC (Percent of control) PKD2 did Cc1cnc(Nc2cccc3[nH]ccc23)c(-c2nc(C)nc(N)n2)c1 show?
Result: 106 POC

Q: Bench note: what POC (Percent of control) PKD2 did COc1ccc(Nc2ncccc2-c2nc(C)nc3[nH]cnc23)cn1 show?
Result: 92 POC

Q: Bench note: what POC (Percent of control) PKD2 did Cc1nc(N)nc(-c2cccnc2Nc2cccc(O)c2)n1 show?
Result: 104 POC

Q: Bench note: what POC (Percent of control) PKD2 did Cc1nc(N)cc(-c2cccnc2Nc2cccc3[nH]ncc23)n1 show?
Result: 102 POC

Q: Bench note: what POC (Percent of control) PKD2 did Cc1nc(-c2cccnc2Nc2cccc3[nH]ncc23)c2nc[nH]c2n1 show?
Result: 97 POC

---

target: ProfilerPro Kinase Selectivity Assay Kit kinases (Homo sapiens); assay type: biochemical; conditions: LYN; 1 μM compound concentration
List of POC (Percent of control) LYN values.
The reply must contain the numeric value and, after it, the unit.

# example entries with known answers
| Molecule | System Under Test | Measured Value |
| --- | --- | --- |
| COc1ccc(Nc2ncccc2-c2nc(C)nc3[nH]cnc23)cn1 [Example 58] | ProfilerPro Kinase Selectivity Assay Kit kinases (Homo sapiens) | 100 POC |
| Cc1nc(N)nc(-c2cccnc2Nc2cccc(O)c2)n1 [Example 23] | ProfilerPro Kinase Selectivity Assay Kit kinases (Homo sapiens) | 101 POC |
| Cc1cnc(Nc2cccc3[nH]ncc23)c(-c2nc(C)nc(N)n2)c1 [Example 47] | ProfilerPro Kinase Selectivity Assay Kit kinases (Homo sapiens) | 55 POC |
| Cc1nc(N)nc(-c2cccnc2Nc2cccc3[nH]ccc23)n1 [Example 22] | ProfilerPro Kinase Selectivity Assay Kit kinases (Homo sapiens) | 108 POC |
| Cc1nc(N)nc(-c2cc(CN3CCN(S(C)(=O)=O)CC3)cnc2Nc2cccc(O)c2)n1 [Example 30] | ProfilerPro Kinase Selectivity Assay Kit kinases (Homo sapiens) | 100 POC |

Q: Write down the reported POC (Percent of control) LYN of Cc1nc(-c2cccnc2Nc2cccc3[nH]ncc23)c2nc[nH]c2n1 [Example 57] , test system: ProfilerPro Kinase Selectivity Assay Kit kinases (Homo sapiens).
Result: 95 POC

Q: Write down the reported POC (Percent of control) LYN of Cc1cnc(Nc2cccc3[nH]ccc23)c(-c2nc(C)nc(N)n2)c1 [Example 46] , test system: ProfilerPro Kinase Selectivity Assay Kit kinases (Homo sapiens).
Result: 96 POC

Q: Write down the reported POC (Percent of control) LYN of COc1ccc(Nc2ncccc2-c2ncnc3[nH]cnc23)cn1 [Example 20] , test system: ProfilerPro Kinase Selectivity Assay Kit kinases (Homo sapiens).
Result: 92 POC

Q: Write down the reported POC (Percent of control) LYN of c1cnc(Nc2cccc3[nH]ccc23)c(-c2ncnc3[nH]cnc23)c1 [Example 19] , test system: ProfilerPro Kinase Selectivity Assay Kit kinases (Homo sapiens).
Result: 50 POC

Q: Write down the reported POC (Percent of control) LYN of COc1ccc(Nc2ncc(CN3CCN(C(C)=O)CC3)cc2-c2nc(C)nc3[nH]cnc23)cn1 [Example 89] , test system: ProfilerPro Kinase Selectivity Assay Kit kinases (Homo sapiens).
Result: 96 POC

Q: Write down the reported POC (Percent of control) LYN of COc1ccc(Nc2ncc(Cc3ccc(S(C)(=O)=O)cc3)cc2-c2nc(C)nc3[nH]cnc23)cn1 [Example 103] , test system: ProfilerPro Kinase Selectivity Assay Kit kinases (Homo sapiens).
Result: 97 POC

Q: Write down the reported POC (Percent of control) LYN of c1cnc(Nc2cccc3[nH]ncc23)c(-c2ncnc3[nH]cnc23)c1 [Example 18] , test system: ProfilerPro Kinase Selectivity Assay Kit kinases (Homo sapiens).
Result: 81 POC

Q: Write down the reported POC (Percent of control) LYN of Cc1nc(N)cc(-c2cccnc2Nc2cccc3[nH]ncc23)n1 [Example 27] , test system: ProfilerPro Kinase Selectivity Assay Kit kinases (Homo sapiens).
Result: 91 POC

Q: Write down the reported POC (Percent of control) LYN of CCc1cnc(Nc2ccc(OC)nc2)c(-c2nc(C)nc3[nH]cnc23)c1 [Example 74] , test system: ProfilerPro Kinase Selectivity Assay Kit kinases (Homo sapiens).
Result: 97 POC
